Ref: PubChem BioAssay (NCI)

- System: MCF7 breast
- procedure details: NCI tumour cell line growth inhibition, 48 h; in the data active = GI50 below about 0.43 µM; inactive = the rest
Hi! Could you answer with just one of these? Yes (active), No (inactive)

Illustrative cases are given below, each with its answer.
1. COc1ccc2c(c1)=C(C=C1C=CN(O)C=C1)C(=O)N=2	No
2. Cc1ccc2c(c1)c1nc3cc(C)c(C)cc3nc1n2CCN(C)C	No
3. O=C(Nc1ccc(F)cc1)Nc1ccccc1CNc1nc(Nc2ccc(OCCN3CCCC3)cc2)ncc1Cl	No

Dear all, I need the recorded test outcome for CN(c1cc2ncc(=O)[nH]c2cc1NC(N)=NCc1ccc(Cl)cc1)C1CCCCC1 , thank you.
No

Dear all, I need the recorded test outcome for CC(C)(O)C#Cc1ccc(/C=C/C(=O)c2ccccc2)s1 , thank you.
No

----------
- System: DU-145 prostate
- procedure details: NCI tumour cell line growth inhibition, 48 h
quantity measured: TGI

Before answering, review these 9 worked examples.
1. Cc1n[nH]c(=O)n1C1CCCC1	> 100 µM
2. CC(=O)Nc1ccc(/C=C/C(=O)c2ccccc2)cc1	10.6 µM
3. COc1cccc(C2C3=C(COC3=O)N(CCO)c3cc(OC)ccc32)c1 (stereo not given)	1.91 µM
4. O=S(=O)(O)CCCC1S(=O)(=O)OCCOS1(=O)=O	> 100 µM
5. C/C=C1/CN2CCc3c([nH]c4ccccc34)[C@@H]2C[C@@H]1Cc1[nH]ccc2c1[nH]c1cc(=O)ccc12	4.26 µM
6. Oc1ccc(CN2CCC(N3CCOCC3)CC2)c2cccnc12	> 100 µM
7. COc1ccc(NC(=O)CC(=O)N2N=C(c3ccccc3)C(N=Nc3ccc(S(=O)(=O)CCOS(=O)(=O)O)cc3)C2=O)cc1 (stereo not given)	> 100 µM
8. O=c1[nH]cnc2c1sc1nc3ccccc3n12	> 100 µM
9. O=C1CS(=O)(=O)C(c2cccc(Oc3ccccc3)c2)N1c1cccc(Cl)c1 (stereo not given)	> 100 µM

Please examine the following record next.
Just so you know, measured TGI for COc1ccc(/C=C2\C(=O)N(C)C(=O)c3cc(OC)c(OC)cc32)cc1OC came out at > 100 µM

----------
- System: MDA-MB-231 breast
- procedure details: NCI tumour cell line growth inhibition, 48 h; in the data active = GI50 below about 0.43 µM; inactive = the rest
Hi! Could you answer with just one of these? TRUE for active, FALSE for inactive

Illustrative cases are given below, each with its answer.
1) Cn1cc(C2=C(c3cn(CCO)c4ccccc34)C(=O)NC2=O)c2ccccc21	FALSE
2) CN(c1cc2ncc(=O)[nH]c2cc1NC(N)=NCc1ccc(Cl)cc1)C1CCCCC1	FALSE
3) N#Cc1ncc(-c2ccc(C(F)(F)F)cc2)c(NCc2cc(C(F)(F)F)cc(C(F)(F)F)c2)n1	FALSE
4) Nc1ccccc1-c1ccc([N+](=O)[O-])cc1	FALSE
5) c1ccc(C2CC(c3cccc(Nc4ccncc4)c3)=NN2c2ccccc2)cc1 (stereo not drawn)	FALSE
6) COc1cc2c(cc1OCCCCCOc1cc3c(cc1OC)C(=O)N1CC(F)C[C@H]1C=N3)N=C[C@@H]1CC(F)CN1C2=O (stereo partly drawn)	TRUE
7) CC(C)[C@H]1CC[C@H]2[C@@H](CC[C@H]3[C@](C)(CN)CCC[C@]23C)C1	FALSE

Query compound follows.
Dear all, I need the recorded test outcome for COc1ccc(-n2cc(-c3cc(OC)c(OC)c(OC)c3)nc2SCc2ccccc2)cc1 , thank you.
FALSE
